Cited source: patent US20220112288A1

Reported koff values for the following binders.
molecular target: T1, Recombinant human CD4 (R&D Systems, Cat. 10327-CD) (human, UniProt P01730 26-390, limits assumed); assay: BLI Octet, non-clonal supernatant on AMC sensor, 100 nM human CD4, 1:1 local fit;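 note: Single-concentration kinetics per supernatant, with the 1:1 model fitted across both the association and dissociation phases of the sensorgram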
T1 construct: Bought reagent; also called huCD4
Report as a plain number; the unit s⁻¹ is understood.

binder	value
75110_01J09A (antibody, V domains shown, Tested as non-clonal AlivaMab Mouse Kappa hybridoma supernatant, captured by anti-mouse IgG Fc sensor) VH: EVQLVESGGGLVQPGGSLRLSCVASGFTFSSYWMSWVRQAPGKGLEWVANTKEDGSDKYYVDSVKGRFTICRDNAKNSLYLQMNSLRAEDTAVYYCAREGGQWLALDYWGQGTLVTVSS VL: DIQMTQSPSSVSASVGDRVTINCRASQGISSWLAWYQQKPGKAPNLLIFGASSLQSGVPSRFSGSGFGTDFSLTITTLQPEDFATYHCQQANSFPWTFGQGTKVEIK	0.0013

Name the reported koff value associated with the binder 75110_01D24A (antibody, V domains shown, Tested as non-clonal AlivaMab Mouse Kappa hybridoma supernatant, captured by anti-mouse IgG Fc sensor) VH: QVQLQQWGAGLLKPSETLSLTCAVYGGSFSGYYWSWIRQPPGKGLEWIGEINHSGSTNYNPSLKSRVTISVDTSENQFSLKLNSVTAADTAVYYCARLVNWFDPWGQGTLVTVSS VL: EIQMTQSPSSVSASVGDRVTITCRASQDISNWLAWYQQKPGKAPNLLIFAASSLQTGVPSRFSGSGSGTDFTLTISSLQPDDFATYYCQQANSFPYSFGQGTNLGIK 0.00013
